target: acetylcholine receptor; assay: SPR, receptor on CM5 chip, peptide 10 µM
result type: Binding affinity (RU)
Field: numeric (RU). Do not append units.

Which value of Binding affinity (RU) has been reported for KRQIYK [6mer-1-520] in the records? 127

Which value of Binding affinity (RU) has been reported for KKVRLR [6mer-1-74] in the records? 142

Which value of Binding affinity (RU) has been reported for RKRQCK [6mer-1-85] in the records? 121

Which value of Binding affinity (RU) has been reported for RRSQSK [6mer-1-507] in the records? 139

Which value of Binding affinity (RU) has been reported for KKWRCK [6mer-1-471] in the records? 123

Which value of Binding affinity (RU) has been reported for RRSLTR [6mer-1-479] in the records? 135

Which value of Binding affinity (RU) has been reported for KRGYTR [6mer-1-526] in the records? 148

Which value of Binding affinity (RU) has been reported for RKGQTK [6mer-1-531] in the records? 135

Which value of Binding affinity (RU) has been reported for RRQYQK [6mer-1-75] in the records? 139

Which value of Binding affinity (RU) has been reported for RKQQCK [6mer-1-91] in the records? 131

Which value of Binding affinity (RU) has been reported for RRLQLK [6mer-1-76] in the records? 126

Which value of Binding affinity (RU) has been reported for RRRYRR [6mer-1-102] in the records? 127

Which value of Binding affinity (RU) has been reported for RRLYRR [6mer-1-468] in the records? 153

Which value of Binding affinity (RU) has been reported for RRSFLR [6mer-1-83] in the records? 146

Which value of Binding affinity (RU) has been reported for RKLRLR [6mer-1-491] in the records? 137

Which value of Binding affinity (RU) has been reported for RKRQQK [6mer-1-498] in the records? 139

Which value of Binding affinity (RU) has been reported for KKLYLR [6mer-1-484] in the records? 154
